Reported GI50 values follow for various compounds
- System: MDA-N
- assay.method.text: NCI tumour cell line growth inhibition, 48 h
Active and inactive are the calls of the source. Cut-off read from the data, not from the text of the source: active = GI50 up to about 1.1 µM and inactive = higher.

# compound, readout.value
measured = [
    ("c1cc(Sc2nc(Sc3ccncc3)nc(Sc3ccncc3)n2)ccn1", "> 100 µM (inactive)"),
]

## Task Consider the compound N#C/C(C(=O)Nc1ccc(Cl)cc1)=C(/N)N1CCOCC1 . State its measured GI50.
## Result 61.8 µM (inactive)

## Task Consider the compound N#C/C(=C/NC(=S)NCc1ccccc1)C(N)=O . State its measured GI50.
## Result > 100 µM (inactive)

## Task Consider the compound O=[N+]([O-])C(C(Cl)=C(Cl)Cl)=C(n1nnc2ccccc21)n1nnc2ccccc21 . State its measured GI50.
## Result 23.9 µM (inactive)

## Task Consider the compound COC(=O)/C(C#N)=C1\NC(=O)CC(c2ccccc2)C1C#N (centres undefined) . State its measured GI50.
## Result > 100 µM (inactive)

## Task Consider the compound CCOc1ccc(NC2=CC(=O)C(=O)c3ccccc32)cc1 . State its measured GI50.
## Result 2.05 µM (inactive)
